Reference for the values: patent US20100311714A1

EXPERIMENT NOTES: High-throughput equilibrium solubility at pH 6.8
Assay type: physicochemical
STATED CONDITIONS: pH 6.8, aqueous buffer, thermodynamic from solid; read-out: HT-Eq Sol/pH 6.8
PROPERTY NAME: log10 of solubility thermodynamic (log10 of the value in µg/mL)

CNc1ncc(-c2ccc3ncc4c(c3c2)n(-c2cnc(F)cc2C)c(=O)n4C)cn1 ... 1.43
CNc1cncc(-c2ccc3ncc4c(c3c2)n(-c2cccnc2C)c(=O)n4C)c1 ... 2.06
Cc1ncccc1-n1c(=O)n(C)c2cnc3ccc(-c4ccc(N)nc4)cc3c21 ... 1.23
Cc1nc(N2CCN(C)C(=O)C2)ccc1-n1c(=O)n(C)c2cnc3ccc(-c4cnc(N)c(C(F)(F)F)c4)cc3c21 ... 1.34
COc1ccc(-c2ccc3ncc4c(c3c2)n(-c2cccnc2C)c(=O)n4C)cc1OC ... 1.08
Cc1ccncc1-n1c(=O)n(C)c2cnc3ccc(-c4ccc(CO)nc4)cc3c21 ... 1.88
CCNc1ncc(-c2ccc3ncc4c(c3c2)n(-c2ccc(N3CC[C@@H](O)C3)nc2C)c(=O)n4C)cc1C(F)(F)F ... 1.36
CCOc1ccc(-c2ccc3ncc4c(c3c2)n(-c2ncccc2C)c(=O)n4C)cn1 ... 1.30
CNc1ccc(-c2ccc3ncc4c(c3c2)n(-c2ccc(F)nc2C)c(=O)n4C)cn1 ... 1.04
CCOc1ccc(-c2ccc3ncc4c(c3c2)n(-c2ccc(C(C)(C)O)nc2C)c(=O)n4C)cn1 ... 0.70
CNc1ncc(-c2ccc3ncc4c(c3c2)n(-c2ccc(N3CCC(O)C3)nc2C)c(=O)n4C)cn1 (stereo not drawn) ... 1.83
Cc1nc(N2CCC2)ccc1-n1c(=O)n(C)c2cnc3ccc(-c4cncc(OC(C)C)c4)cc3c21 ... 1.54
CNc1ccc(-c2ccc3ncc4c(c3c2)n(-c2ccc(N3CCC3)nc2C)c(=O)n4C)cn1 ... 0.95
CCNc1cc(-c2ccc3ncc4c(c3c2)n(-c2ccc(OCCOC)nc2C)c(=O)n4C)cnc1C ... 0.85
